# experimental-protocol: protein stability index of a GFP-peptide fusion (GPS, HEK-293T) (PSI 1-6); higher = more stable;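 also: 24-mer peptide tiles fused after GFP, lentivirally expressed, FACS-sorted into six equal bins by GFP/DsRed ratio, decoded by Illumina sequencing, PSI is the read-weighted mean bin number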
# applied-conditions: treatment: MLN4924 1 uM, 8 h; c terminus: a fixed tail appended
protein stability index overview
Lab note: jot the number down without any unit.

Consider the worked cases shown below.
[
  {
    "biosequence": "IDLSAWCYYCQAYVHHQALLDVKN [HDAC6]",
    "protein stability index": 3.08
  },
  {
    "biosequence": "LVQLEDEITTLRQVLSAKERHLVE [TPD52L1]",
    "protein stability index": 3.04
  }
]

Moving on to the next sequence.
Looking up NKTLLRLRLRKERVSDVQKVLQGG [PKD2L1] , I found its protein stability index recorded as 2.94

====

protein stability index overview
# experimental-protocol: protein stability index of a GFP-peptide fusion (GPS, HEK-293T) (PSI 1-6); higher = more stable
# applied-conditions: treatment: MLN4924 1 uM, 8 h; c terminus: a fixed tail appended
Lab note: jot the number down without any unit.

Consider the worked cases shown below.
[
  {
    "biosequence": "KQSLVVAVQDHGQPPLSATVTLTV [PCDHGA10]",
    "quantity": "protein stability index",
    "result": 2.68
  },
  {
    "biosequence": "AMDLGFFVVMGVIGGLLGATFNCL [CLCN6]",
    "quantity": "protein stability index",
    "result": 3.19
  },
  {
    "biosequence": "AVIQHRPSRQYATLDVYNPFETRE [SCAMP3]",
    "quantity": "protein stability index",
    "result": 3.39
  },
  {
    "biosequence": "TSFQWVTKWVDYSNKYGFGYQLSD [PLK2]",
    "quantity": "protein stability index",
    "result": 2.08
  }
]

Looking up VVILPCQHNLCRKCASDIFQASNP [TRIM55] , I found its protein stability index recorded as 2.38

====

# experimental-protocol: protein stability index of a GFP-peptide fusion (GPS, HEK-293T) (PSI 1-6); higher = more stable
# applied-conditions: treatment: DMSO; c terminus: a fixed tail appended
protein stability index overview

Consider the worked cases shown below.
[
  {
    "biosequence": "NHLLESMPLREGSSFQDLLGDALA [HES6]",
    "quantity": "protein stability index",
    "result": 3.34
  },
  {
    "biosequence": "CGSQLSSTKGSRSNLSTRDASILT [NETO1]",
    "quantity": "protein stability index",
    "result": 2.62
  },
  {
    "biosequence": "KENSHQVKEELSQKFDTLYAILDE [TRIM63]",
    "quantity": "protein stability index",
    "result": 4.77
  },
  {
    "biosequence": "YNVSPLSWNVAVKFLMARKFDVLR [PTPN9]",
    "quantity": "protein stability index",
    "result": 3.02
  }
]

Looking up MMLFNDGTFQVNFYHDHTKIIICS [PLK2] , I found its protein stability index recorded as 2.79

Looking up TVQGKKGVYMTDITPQGVAMRAGV [PDZK1] , I found its protein stability index recorded as 3.12

Looking up TPPSSRRVWSPPRVHKVEMGFGGG [ZBTB22] , I found its protein stability index recorded as 3.22

Looking up GVEVIVRISHTLYDLDKIIELNGG [CRY1] , I found its protein stability index recorded as 3.29
